test system: SK-MEL-2 melanoma; assay: NCI-60 one-dose screen, 48 h (100 = growth as untreated, 0 = no growth, -100 = all killed); conditions: 10 µM unless noted
Compounds without any hit were thinned out: in the full panel of roughly 83,000, 20% have a hit.
Categorize each record by its growth using zone 1 (below 30%), zone 2 (30% to below 90%), zone 3 (90% or more)

- compound: "COC(=O)c1c2c(n3ccc(C)cc13)C(=O)c1ccccc1C2=O"
  group: "zone 2"
- compound: "COCC[C@H]1CCC/C=C/[C@@H]2C[C@H](O)C[C@H]2[C@H](O)/C=C/C(=O)O1"
  group: "zone 1"
- compound: "COc1cccc(/C=C/C(=O)c2cc3c(N)c(C(=O)Nc4cccc(Cl)c4C)sc3nc2C)c1"
  group: "zone 1"
- compound: "COc1ccc(-c2cn(-c3ccc(Cl)cc3)c(SCC(=O)c3ccc([N+](=O)[O-])cc3)n2)cc1"
  group: "zone 2"
- compound: "Nc1n[nH]c2ccc([C@@H]3Nc4cc5[nH]ncc5cc4[C@H]4C5CCC(C5)[C@@H]34)cc12 (some centres undefined)"
  group: "zone 2"

stdin: Sort CC(C)C[C@@H](C(=O)N[C@H](C(=O)OC1CCCC1)c1ccccc1)[C@H](O)C(=O)NO into one of the categories.
stdout: zone 2

stdin: Category of CN(CCC#N)c1ccc(/C=C2\NC(=O)NC2=O)cc1 :
stdout: zone 3

stdin: Categorize the following entry: COc1cc2c(c(OC)c1OC)C(=O)N[C@@H]1[C@@H](O)[C@@H](O)[C@H](O)C[C@@H]21
stdout: zone 3
